system: LNCaP; assay: Anti-proliferative activity against human LNCAP cells measured after 96 hrs by MTT assay; type: functional
Entries and their measured GI50 follow.

Below: 3 molecules and their reported GI50.
Find the recorded GI50 belonging to COC(=O)[C@@]1(C)C(=O)C=C[C@]2(C)[C@H]3C(=O)C=C4[C@@H]5[C@@H](C)[C@H](C)CC[C@]5(C)CC[C@@]4(C)[C@]3(C)CC[C@@H]12 and report it.
> 12.5 µM

Again, but for C[C@H]1[C@H](C)CC[C@]2(C)CC[C@]3(C)C(=CC(=O)[C@@H]4[C@@]5(C)C=C(C#N)C(=O)[C@](C)(C(=O)N6CCCC6)[C@@H]5CC[C@]43C)[C@H]12
5.37 µM

Ok, now C[C@H]1[C@H](C)CC[C@]2(C)CC[C@]3(C)C(=CC(=O)[C@@H]4[C@@]5(C)C=CC(=O)[C@](C)(C(=O)OCc6ccccc6)[C@@H]5CC[C@]43C)[C@H]12
> 12.5 µM

Note: attention shifts to another entry.
// returns reported GI50 for input C[C@H]1[C@H](C)CC[C@]2(C)CC[C@]3(C)C(=CC(=O)[C@@H]4[C@@]5(C)C=C(I)C(=O)[C@](C)(C(=O)OCc6ccccc6)[C@@H]5CC[C@]43C)[C@H]12
> 12.5 µM

====

target: Peptidyl-prolyl cis-trans isomerase NIMA-interacting 1 (Homo sapiens, UniProt Q13526)
Sequence (Q13526 whole entry): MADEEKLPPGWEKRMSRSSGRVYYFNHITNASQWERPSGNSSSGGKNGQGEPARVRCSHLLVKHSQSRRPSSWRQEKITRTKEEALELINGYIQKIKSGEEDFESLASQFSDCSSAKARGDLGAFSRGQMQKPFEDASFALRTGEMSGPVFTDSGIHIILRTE
Measured metric: pIC50
The meaning of pIC50 here: minus log10 of the concentration in molar units.

# input molecule: C[C@H]1[C@H](C)CC[C@]2(C)CC[C@]3(C)C(=CC(=O)[C@@H]4[C@@]5(C)C=C(C(F)(F)F)C(=O)[C@](C)(C(=O)N6CCNCC6)[C@@H]5CC[C@]43C)[C@H]12 ; wanted: its pIC50
5.02

====

Measured GI50, listed per entry.
test system: LNCaP; experiment: Anti-proliferative activity against human LNCAP cells measured after 96 hrs by MTT assay; format: functional

The examples below pair each entry with its known result.
Consider the compound CC1CCN(C(=O)[C@@]2(C)C(=O)C(C#N)=C[C@]3(C)[C@H]4C(=O)C=C5[C@@H]6[C@@H](C)[C@H](C)CC[C@]6(C)CC[C@@]5(C)[C@]4(C)CC[C@@H]23)CC1 and give its measured GI50.
3.82 µM

C[C@H]1[C@H](C)CC[C@]2(C)CC[C@]3(C)C(=CC(=O)[C@@H]4[C@@]5(C)C=C(C#N)C(=O)[C@](C)(C(=O)O)[C@@H]5CC[C@]43C)[C@H]12 ?
0.7 µM

Could you now consider this next compound?
Reported GI50, compound COC(=O)[C@@]1(C)C(=O)C(I)=C[C@]2(C)[C@H]3C(=O)C=C4[C@@H]5[C@@H](C)[C@H](C)CC[C@]5(C)CC[C@@]4(C)[C@]3(C)CC[C@@H]12 : ____
> 12.5 µM

====

test system: LNCaP; assay: Anti-proliferative activity against human LNCAP cells measured after 96 hrs by MTT assay; type: functional
Measured metric: GI50 (µM)
Field: numeric (µM). Do not append units.

GET /values?readout=GI50&system=LNCaP&item= C[C@H]1[C@H](C)CC[C@]2(C)CC[C@]3(C)C(=CC(=O)[C@@H]4[C@@]5(C)C=C(C#N)C(=O)[C@](C)(C(=O)N6CCNCC6)[C@@H]5CC[C@]43C)[C@H]12
0.27

Moving on to the next molecule: C[C@H]1[C@H](C)CC[C@]2(C)CC[C@]3(C)C(=CC(=O)[C@@H]4[C@@]5(C)C=C(I)C(=O)[C@](C)(C(=O)N6CCC(N7CCCCC7)CC6)[C@@H]5CC[C@]43C)[C@H]12
3.59

Proceed to C[C@H]1[C@H](C)CC[C@]2(C)CC[C@]3(C)C(=CC(=O)[C@@H]4[C@@]5(C)C=C(I)C(=O)[C@](C)(C(=O)O)[C@@H]5CC[C@]43C)[C@H]12
3.78

Same again, this time with C[C@H]1[C@H](C)CC[C@]2(C)CC[C@]3(C)C(=CC(=O)[C@@H]4[C@@]5(C)C=C(C#N)C(=O)[C@](C)(C(=O)N6CCC(N7CCCCC7)CC6)[C@@H]5CC[C@]43C)[C@H]12
0.67

Try this molecule next: CC(=O)O[C@@H]1CC[C@@]2(C)[C@@H](CC[C@]3(C)[C@@H]2C(=O)C=C2[C@@H]4[C@@H](C)[C@H](C)CC[C@]4(C)CC[C@]23C)[C@@]1(C)C(=O)O
27.4

Param item: C[C@H]1[C@H](C)CC[C@]2(C)CC[C@]3(C)C(=CC(=O)[C@@H]4[C@@]5(C)C=C(C(F)(F)F)C(=O)[C@](C)(C(=O)N6CCC(N7CCCCC7)CC6)[C@@H]5CC[C@]43C)[C@H]12
1.79
